This collection of values is drawn from patent US20240252677A1.

assay protocol: Dimensions (size, PDI) of DNPs co-assembled from IAJDs and Luc-mRNA by DLS
Format: physicochemical
test conditions: Table 13; DNPs, IAJD 4 mg/mL + Luc-mRNA 0.10 mg/mL, acetate buffer pH 4.0
// reported Size (d, nm) per item
Numbers only; they are read as nm.

Before answering, review these 2 worked examples.
| molecule | measured |
| --- | --- |
| CCCCC(CC)COc1cc(COC(=O)CCCN2CCN(C)CC2)cc(OCC(CC)CCCC)c1OCC(CC)CCCC (stereo not drawn) | 139 |
| CCCCCCCCCCCCCCCCOc1cc(COC(=O)CCCN2CCN(C)CC2)cc(OCCCCCCCCCCC)c1 | 91 |

Here is another molecule to look at.
For record `CCCCCCCCCOc1cc(COC(=O)CCCN2CCN(C)CC2)cc(OCCCCCCCCC)c1` the listed Size (d, nm) is 110

====

// reported Size (d, nm) per item
assay protocol: Dimensions (size, PDI) of DNPs co-assembled from IAJDs and Luc-mRNA by DLS
Assay type: physicochemical
test conditions: Table 13; DNPs, IAJD 4 mg/mL + Luc-mRNA 0.10 mg/mL, acetate buffer pH 4.0

| compound | observed property | measured |
| --- | --- | --- |
| CCCCCCCCCCCCCCOc1cc(COC(=O)CCCN2CCN(C)CC2)cc(OCCCCCCCCCCCCCC)c1 [IAJD 74] | Size (d, nm) | 180 nm |
| CCCCC(CC)COc1cc(COC(=O)CCCN2CCN(CCO)CC2)cc(OCC(CC)CCCC)c1 (stereo not shown) [IAJD 87] | Size (d, nm) | 146 nm |
| CCCCCCCCCCCCCCCCOc1cc(COC(=O)CCCN2CCN(C)CC2)cc(OCCCCCCCCCCCC)c1 [IAJD 106] | Size (d, nm) | 105 nm |

For record CCCCC(CC)COc1cc(COC(=O)CCCN2CCN(CCO)CC2)cc(OCC(CC)CCCC)c1OCC(CC)CCCC (stereo not shown) [IAJD 97] the listed Size (d, nm) is 204 nm

For record CCCCC(CC)COc1ccc(COC(=O)CCCN2CCN(C)CC2)cc1OCC(CC)CCCC (stereo not shown) [IAJD 103] the listed Size (d, nm) is 88 nm

For record CCCCCCCCOc1cc(COC(=O)CCCN2CCN(C)CC2)cc(OCCCCCCCC)c1 [IAJD 88] the listed Size (d, nm) is 100 nm

For record CCCCC(CC)COC(=O)CCCCOc1cc(COC(=O)CCCN2CCN(CCO)CC2)cc(OCCCCC(=O)OCC(CC)CCCC)c1 (stereo not shown) [IAJD 95] the listed Size (d, nm) is 105 nm

====

assay protocol: Stability of DNPs by DLS after storage at 5° C.
Type: physicochemical
test conditions: after 19 days at 5° C.; IAJD 4.0 mg/mL + Luc-mRNA 0.1 mg/mL, acetate buffer
// reported PDI per item
Give your answer as a number; write no unit.

Before answering, review these 5 worked examples.
| molecule | PDI |
| --- | --- |
| CCCCCCCCCCCCCCCOc1cc(COC(=O)CCCN2CCN(C)CC2)cc(OCCCCCCCCCCCCCC)c1 | 0.283 |
| CCCCCCCCCCCCCCCCCOc1cc(COC(=O)c2cc(OCCOCCOCCCC(=O)CCCN3CCCCC3)c(OCCOCCOCCOCc3ccccc3)c(OCCOCCOCCOC(=O)CCCN3CCCCC3)c2)cc(OCCCCCCCCCCC)c1 | 0.258 |
| CCCCCCCCCCCCCCCOc1cc(COC(=O)c2cc(OCCOCCOCCCC(=O)CCCN3CCCCC3)c(OCCOCCOCCOCc3ccccc3)c(OCCOCCOCCOC(=O)CCCN3CCCCC3)c2)cc(OCCCCCCCCCCC)c1 | 0.255 |
| CCCCCCCCCCCCCCCCOc1cc(COC(=O)CCCN2CCN(CCO)CC2)cc(OCCCCCCCCCCCCCCC)c1 | 0.314 |
| CCCCCCCCCCCOc1cc(COC(=O)c2cc(OCCOCCOCCCC(=O)CCCN3CCCCC3)c(OCCOCCOCCOCc3ccccc3)c(OCCOCCOCCOC(=O)CCCN3CCCCC3)c2)cc(OCC(CC)CCCC)c1 (stereo not drawn) | 0.259 |

For record `CCCCCCCCCCCCCCCCOc1cc(COC(=O)CCCN2CCN(C)CC2)cc(OCCCCCCCCCCCCCCC)c1` the listed PDI is 0.291
